ASSAY TARGET: recombinant human Meningioma Expressed Antigen 5 (MGEA5), also referred to as O-GlcNAcase (OGA) (Homo sapiens, UniProt O60502)
Construct: Full length OGA enzyme was purchased at OriGene (cat #TP322411); purchased OriGene TP322411
Sequence (O60502 whole entry): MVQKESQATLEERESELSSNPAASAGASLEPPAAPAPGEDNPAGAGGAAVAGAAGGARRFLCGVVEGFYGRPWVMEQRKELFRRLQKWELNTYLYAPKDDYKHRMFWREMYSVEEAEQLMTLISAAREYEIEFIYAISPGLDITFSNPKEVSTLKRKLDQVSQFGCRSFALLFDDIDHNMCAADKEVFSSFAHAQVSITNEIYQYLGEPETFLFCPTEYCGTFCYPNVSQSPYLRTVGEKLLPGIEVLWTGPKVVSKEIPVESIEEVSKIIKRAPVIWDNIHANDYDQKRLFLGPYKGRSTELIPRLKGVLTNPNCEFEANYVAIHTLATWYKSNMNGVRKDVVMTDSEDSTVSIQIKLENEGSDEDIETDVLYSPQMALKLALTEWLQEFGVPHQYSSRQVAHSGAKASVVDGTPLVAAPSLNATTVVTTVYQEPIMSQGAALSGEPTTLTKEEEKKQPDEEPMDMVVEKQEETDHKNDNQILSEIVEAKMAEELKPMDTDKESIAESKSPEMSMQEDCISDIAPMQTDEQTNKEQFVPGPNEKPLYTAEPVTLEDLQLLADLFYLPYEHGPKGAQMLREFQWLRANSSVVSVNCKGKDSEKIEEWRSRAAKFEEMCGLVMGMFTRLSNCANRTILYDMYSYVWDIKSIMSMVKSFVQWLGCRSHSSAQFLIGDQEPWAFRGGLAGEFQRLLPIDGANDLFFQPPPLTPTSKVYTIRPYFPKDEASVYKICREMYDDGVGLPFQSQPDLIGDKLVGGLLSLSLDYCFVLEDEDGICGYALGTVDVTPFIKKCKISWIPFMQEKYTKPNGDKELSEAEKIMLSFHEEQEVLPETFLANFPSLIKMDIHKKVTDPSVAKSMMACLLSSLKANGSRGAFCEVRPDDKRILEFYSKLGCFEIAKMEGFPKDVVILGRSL
ASSAY SUMMARY: OGA biochemical assay (inhibition of FM-GlcNAc hydrolysis, fluorescence)
CONDITION NOTES: read-out: Enzymatic hOGA, pIC50 (converted)
IC50 values for the molecules below.

MOLECULE | BOUND TYPE | IC50 / nM
Cc1cc(OCC2CCN(C(C)c3ccc4c(n3)OCCO4)CC2)cc(C)n1 (centres unmarked) [Compound 75] | = | 398
Cc1ncc(OC2CCN(C(C)c3ccc4c(c3)OCO4)CC2)cn1.Cl (centres unmarked) [Compound 30] | = | 794
CC(c1nc2c(cc1F)OCCO2)N1CCC(Oc2ccc(C#N)nn2)CC1 (centres unmarked) [Compound 92] | = | 25.1
Cc1cc(OC2CCN(C(C)c3cc4c(cn3)OCCO4)CC2)cc(C)n1 (centres unmarked) [Compound 29] | = | 5010
CC(c1nc2c(cc1F)OCCO2)N1CCC(Oc2cnc(C(F)(F)F)nc2)CC1 (centres unmarked) [Compound 168] | = | 12.6
Cc1cc(OC2CCN(C(C)c3ccc4c(c3)OCCO4)CC2)cc(C)n1 (centres unmarked) [Compound 25] | = | 501
C[C@H](c1nc2c(cc1F)OCCO2)N1CCC(Oc2ccc(C#N)nn2)CC1 (single isomer, unassigned) [Compound 85] | > | 10000
Cc1cc(NC2CCN(C(C)c3nc4c(cc3F)OCCO4)CC2)cc(C)n1 (centres unmarked) [Compound 133] | = | 25.1
